# METHOD_SUMMARY: Passive artificial membrane permeability (PAMPA)
# SETUP_CONDITIONS: PAMPA, pH 7.4
MEASURED_PROPERTY: Papp at 50 μM (×10⁻⁶ cm/s)
Report the figure in ×10⁻⁶ cm/s without appending any unit label.

Sample answers from the record:
>  <COMPOUND>
O=C1NCCSCc2cccc(n2)CSC[C@H](NC(=O)c2ccc(Cl)s2)C(=O)N[C@@H](CO)C(=O)NCc2cccc1c2

>  <UNIT_TEXT>
×10⁻⁶ cm/s

>  <Papp at 50 μM>
0.151

$$$$
>  <COMPOUND>
CN1CCC(=O)NCCSCCS(=O)(=O)CCSC[C@H](NC(=O)c2ccc(Cl)s2)C(=O)N[C@@H](Cc2ccccc2)C1=O

>  <UNIT_TEXT>
×10⁻⁶ cm/s

>  <Papp at 50 μM>
0.0776

$$$$
>  <COMPOUND>
O=C1NCCSCc2cccc(n2)CSC[C@H](NC(=O)c2ccc(Cl)s2)C(=O)N[C@@H](CO)C(=O)NCc2ccc1cc2

>  <UNIT_TEXT>
×10⁻⁶ cm/s

>  <Papp at 50 μM>
0.0407

$$$$
>  <COMPOUND>
O=C1C[C@H]2CCCN2C(=O)[C@H](Cc2ccccc2)NC(=O)[C@@H](NC(=O)c2ccc(Cl)s2)CCCSC/C=C/CSCCN1

>  <UNIT_TEXT>
×10⁻⁶ cm/s

>  <Papp at 50 μM>
2.88

$$$$

Input line: Reported Papp at 50 μM, compound O=C1C[C@H]2CCCN2C(=O)[C@H](Cc2ccccc2)NC(=O)[C@@H](NC(=O)c2ccc(Cl)s2)CCC=CCCCCN1 [peptide 43] : ____
Output line: 9.77

Input line: Same question for "O=C1CC2CCN(CC2)C(=O)[C@H](Cc2ccccc2)NC(=O)[C@@H](NC(=O)c2ccc(Cl)s2)CSCc2cccc(n2)CSCCN1" please.
Output line: 1.35

----------
Quick reference: Residual thrombin activity: Equilibrated sample of the listed items.
# SYSTEM_NAME: human α-thrombin (Homo sapiens, UniProt P00734)
# METHOD_SUMMARY: Sub-library screen for active and permeable cyclic peptides (PAMPA plus thrombin inhibition)
# Assay type: biochemical
# SETUP_CONDITIONS: donor sample diluted to theoretical equilibrium (1 μM in assay); crude; slopes normalized to DMSO
Write the number on its own, no unit after it.

>  <CHEMICAL_SMILES>
N#Cc1ccc(C[C@@H]2NC(=O)[C@@H](NC(=O)c3ccc(Cl)s3)CCSCc3cccc(c3)CSCCNC(=O)C[C@H]3CCCN3C2=O)cc1

>  <VALUE_OBSERVED>
101.3

$$$$

Input line: Item "COc1ccc(C[C@@H]2NC(=O)[C@@H](NC(=O)c3ccc(Cl)s3)CCSCC(=O)CSCCNC(=O)C[C@H]3CCCN3C2=O)cc1" with human α-thrombin (Homo sapiens, UniProt P00734) - Residual thrombin activity: Equilibrated sample?
Output line: 99.9

Input line: // query: "O=C1C[C@H]2CCCN2C(=O)[C@H](Cc2ccc(C(F)(F)F)cc2)NC(=O)[C@@H](NC(=O)c2ccc(Cl)s2)CCCSCc2cccc(n2)CSCCN1"
Output line: 98.3

Input line: Do the same for "N#Cc1ccc(C[C@@H]2NC(=O)[C@@H](NC(=O)c3ccc(Cl)s3)CCSCC(=O)CSCCNC(=O)C[C@H]3CCCN3C2=O)cc1" please
Output line: 104.7

Input line: Request: "N#Cc1ccc(C[C@@H]2NC(=O)[C@@H](NC(=O)c3ccc(Cl)s3)CSCc3ccccc3CSCCNC(=O)C[C@H]3CCCN3C2=O)cc1"
Output line: 92.5
